Assay: Action to increase the urinary excretion of calcium (1), percutaneous administration
Type: in vivo, SD male rats
Conditions: percutaneous 10 μg/200 μL/kg/day once a day for 4 days; accumulated excretion 0 to 72 hours
Below, each of the compounds is paired with its reported Calcium in Urine within 72 hours value.
outcome measure: Calcium in Urine within 72 hours (mg)

1. C=C1[C@H](O)CC(=C/C=C2\CCC[C@]3(C)C([C@H](C)OC(=O)CCC(C)(C)O)=CC[C@@H]23)C[C@H]1O [Compound of Example 48]; 3.5
2. C=C1/C(=C\C=C2/CCC[C@]3(C)C([C@H](C)OC(=O)CCC(C)(O)C(F)(F)F)=CC[C@@H]23)C[C@@H](O)C[C@@H]1O (single isomer, unassigned) [Compound of Example 70]; 2.7
3. CC(OC(=O)CCC(C)(O)C(F)(F)F)C1CCC2C(=CC=C3CC(O)CC(O)C3)CCCC21C (stereo not shown) [Compound of Example 43]; 3.3
4. C=C1[C@H](O)CC(=C/C=C2\CCC[C@]3(C)C([C@H](C)OC(=O)CC[C@](C)(O)C(F)(F)F)=CC[C@@H]23)C[C@H]1O [Compound of Example 55]; 3.4
